Provenance of the data: paper PMC4669708

Tested on: HT-29 cells
assay method text: TNF-α/Smac mimetic/z-VAD-FMK (TSZ)-induced necroptosis, cell viability
Format: cell-based, human
test conditions: Homo sapiens, HT-29; TSZ treatment; read-out: EC50 (necroptosis block)
quantity name: pEC50
On this scale, pEC50 is minus log10 of a concentration expressed in M (mol/L).

Cc1ccc(C(=O)Nc2ccc(CN3CCN(C)CC3)c(C(F)(F)F)c2)cc1C#Cc1cnc2cccnn12 [ponatinib, Ponatinib] has a reported pEC50 of 7.30

* * *

Tested on: FADD-deficient Jurkat cells
assay method text: Drug toxicity, cell viability without TNF-α
Assay type: cell-based
test conditions: Homo sapiens, 24 h, no TNF-α, CellTiter Glo
quantity name: pIC50
On this scale, pIC50 is minus log10 of a concentration expressed in M (mol/L).

`Cc1ccc(C(=O)Nc2ccc(CN3CCN(C)CC3)c(C(F)(F)F)c2)cc1C#Cc1cnc2cccnn12` has a reported pIC50 of 5.80

* * *

Test system: 3T3-SA or L929 cells
assay method text: Drug toxicity dose-response, Supplementary Figure 3
Format: cell-based, murine
test conditions: Mus musculus, read-out: IC50 (printed in Supplementary Figure 3)
quantity name: pIC50
On this scale, pIC50 is minus log10 of a concentration expressed in M (mol/L).

`Cc1ccc(C(=O)Nc2ccc(CN3CCN(C)CC3)c(C(F)(F)F)c2)cc1C#Cc1cnc2cccnn12` has a reported pIC50 of 5.96
